- tested-target: T1, human arginase I (human, UniProt P05089 1-322, RED-tris-NTA dye on the His6-tag (Monolith His-Tag Labeling Kit RED-tris-NTA) in the MST assay)
- T1 construct: human arginase I, full-length gene amplified from a commercial template plasmid (dnasu.org), cloned in pETM11; His6-tag and TEV protease site at the N-terminus; A TEV protease site lies between the His6-tag and the protein; no cleavage is described; also called hargI; hArg1; source: E. coli BL21 (DE3) RIL, purified (Ni-NTA, SEC); not shown: His6, N-terminal, kept
- T1 sequence (looked up): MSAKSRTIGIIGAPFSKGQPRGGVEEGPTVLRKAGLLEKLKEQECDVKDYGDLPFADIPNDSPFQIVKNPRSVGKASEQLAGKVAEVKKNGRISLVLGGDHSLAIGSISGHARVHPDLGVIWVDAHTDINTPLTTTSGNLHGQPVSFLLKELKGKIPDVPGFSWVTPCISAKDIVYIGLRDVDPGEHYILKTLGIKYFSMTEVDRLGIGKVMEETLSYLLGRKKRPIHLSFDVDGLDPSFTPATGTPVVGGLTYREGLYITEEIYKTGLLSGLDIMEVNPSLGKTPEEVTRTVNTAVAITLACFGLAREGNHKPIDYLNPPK
- assay-remarks: MST; Monolith NT.115; His6-tagged arginase labeled with RED-tris-NTA at 50 nM, peptide REGNH titrated in 1:1 dilution; 25 mM Tris-HCl pH 7.5, 125 mM NaCl, 1% glycerol, 1 mM BME, 0.05% Tween-20; 10 min incubation at room temperature; triplicate
- test-settings: both partners purified
value-kind: Kd (µM)
Answers are plain numbers, in µM.

Inquiry: Any idea what its Kd is? The binder is REGNH (residues 308-312 of human arginase I, part of the S-shape motif of the C-terminal; Nothing is said of modified ends; also called peptide analogue; REGNH C-terminus analogue peptide; source: synthetic peptide; bought: Biomatik and TopPeptides, Shanghai) [synthetic peptide REGNH]
Reply text: 177
